- tested_system: Human HERG (Homo sapiens, UniProt Q12809)
- Sequence (Q12809 whole entry): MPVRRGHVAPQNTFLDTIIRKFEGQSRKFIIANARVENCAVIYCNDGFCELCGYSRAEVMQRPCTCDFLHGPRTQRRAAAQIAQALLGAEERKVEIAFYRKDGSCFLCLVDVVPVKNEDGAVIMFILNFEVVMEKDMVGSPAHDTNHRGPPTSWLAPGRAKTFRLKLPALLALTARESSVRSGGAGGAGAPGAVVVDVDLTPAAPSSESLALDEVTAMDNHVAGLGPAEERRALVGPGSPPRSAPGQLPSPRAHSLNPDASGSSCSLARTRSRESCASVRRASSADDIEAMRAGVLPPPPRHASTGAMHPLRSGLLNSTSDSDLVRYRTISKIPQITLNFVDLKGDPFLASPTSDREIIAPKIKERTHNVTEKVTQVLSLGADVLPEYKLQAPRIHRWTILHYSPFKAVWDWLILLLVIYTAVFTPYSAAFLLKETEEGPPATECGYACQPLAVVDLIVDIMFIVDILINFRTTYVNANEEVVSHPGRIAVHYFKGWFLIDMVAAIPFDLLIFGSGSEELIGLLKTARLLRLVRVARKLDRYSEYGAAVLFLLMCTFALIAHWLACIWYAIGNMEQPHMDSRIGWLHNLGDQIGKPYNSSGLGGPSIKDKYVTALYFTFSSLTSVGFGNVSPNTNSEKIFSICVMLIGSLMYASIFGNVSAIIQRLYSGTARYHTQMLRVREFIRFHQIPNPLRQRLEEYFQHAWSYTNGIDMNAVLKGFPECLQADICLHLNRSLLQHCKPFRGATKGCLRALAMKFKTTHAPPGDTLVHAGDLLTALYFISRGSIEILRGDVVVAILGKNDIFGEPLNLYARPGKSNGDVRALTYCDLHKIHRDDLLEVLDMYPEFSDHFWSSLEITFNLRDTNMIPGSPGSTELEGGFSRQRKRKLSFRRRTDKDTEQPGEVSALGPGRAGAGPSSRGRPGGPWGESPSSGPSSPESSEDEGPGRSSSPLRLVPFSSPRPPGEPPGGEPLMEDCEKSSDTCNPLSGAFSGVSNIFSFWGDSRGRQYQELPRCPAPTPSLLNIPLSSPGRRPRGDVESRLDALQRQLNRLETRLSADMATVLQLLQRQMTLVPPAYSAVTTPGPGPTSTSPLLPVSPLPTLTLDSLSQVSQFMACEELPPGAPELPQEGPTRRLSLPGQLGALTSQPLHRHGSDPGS
- assay_protocol: Human Dofetilide Binding Assay
pIC50: −log10 of the molar value.
The following molecules are listed with their measured pIC50 values.
assay_endpoint: pIC50

- compound_string: "Cc1ccc(OC[C@H]2CC[C@@](O)(CNC(=O)c3ccc(O)cc3)CC2)nc1"
  sign_qualifier: "<"
  assay_result: 4.52
- compound_string: "O=C(NC[C@]1(O)CC[C@H](COc2ccc(F)cc2)CC1)c1ccc(O)c(F)c1"
  sign_qualifier: "<"
  assay_result: 4.00
- compound_string: "Cc1ccccc1OC[C@H]1CC[C@@](O)(CNC(=O)c2ccc(O)cc2)CC1"
  sign_qualifier: "<"
  assay_result: 4.00
- compound_string: "O=C(NC[C@H]1CC[C@@H](COc2ccc(F)cc2)CO1)c1ccc(O)cc1"
  sign_qualifier: "="
  assay_result: 4.57
- compound_string: "O=C(NC[C@@H]1CC[C@H](COc2ccc(F)cc2)CO1)c1ccc(O)cc1"
  sign_qualifier: "="
  assay_result: 4.56
- compound_string: "O=C(NC[C@]1(O)CC[C@H](COCc2ccc(F)cc2)CC1)c1ccc(O)cc1"
  sign_qualifier: "="
  assay_result: 4.01
- compound_string: "O=C(NC[C@]1(O)CC[C@H](COc2cccc(F)c2)CC1)c1ccc(O)cc1"
  sign_qualifier: "="
  assay_result: 4.59
- compound_string: "O=C(NC[C@]1(O)CC[C@H](Cc2ccccc2)CC1)c1ccc(O)cc1"
  sign_qualifier: "<"
  assay_result: 4.00

###

Below, each of the compounds is paired with its reported pIC50 value.
- tested_system: NR2B receptor (Rattus norvegicus, UniProt P35439+Q00960)
- Construct: Membranes were prepared by homogenization of forebrain of male CD rats
- Sequence (Q00960 27-1482, other chains not shown): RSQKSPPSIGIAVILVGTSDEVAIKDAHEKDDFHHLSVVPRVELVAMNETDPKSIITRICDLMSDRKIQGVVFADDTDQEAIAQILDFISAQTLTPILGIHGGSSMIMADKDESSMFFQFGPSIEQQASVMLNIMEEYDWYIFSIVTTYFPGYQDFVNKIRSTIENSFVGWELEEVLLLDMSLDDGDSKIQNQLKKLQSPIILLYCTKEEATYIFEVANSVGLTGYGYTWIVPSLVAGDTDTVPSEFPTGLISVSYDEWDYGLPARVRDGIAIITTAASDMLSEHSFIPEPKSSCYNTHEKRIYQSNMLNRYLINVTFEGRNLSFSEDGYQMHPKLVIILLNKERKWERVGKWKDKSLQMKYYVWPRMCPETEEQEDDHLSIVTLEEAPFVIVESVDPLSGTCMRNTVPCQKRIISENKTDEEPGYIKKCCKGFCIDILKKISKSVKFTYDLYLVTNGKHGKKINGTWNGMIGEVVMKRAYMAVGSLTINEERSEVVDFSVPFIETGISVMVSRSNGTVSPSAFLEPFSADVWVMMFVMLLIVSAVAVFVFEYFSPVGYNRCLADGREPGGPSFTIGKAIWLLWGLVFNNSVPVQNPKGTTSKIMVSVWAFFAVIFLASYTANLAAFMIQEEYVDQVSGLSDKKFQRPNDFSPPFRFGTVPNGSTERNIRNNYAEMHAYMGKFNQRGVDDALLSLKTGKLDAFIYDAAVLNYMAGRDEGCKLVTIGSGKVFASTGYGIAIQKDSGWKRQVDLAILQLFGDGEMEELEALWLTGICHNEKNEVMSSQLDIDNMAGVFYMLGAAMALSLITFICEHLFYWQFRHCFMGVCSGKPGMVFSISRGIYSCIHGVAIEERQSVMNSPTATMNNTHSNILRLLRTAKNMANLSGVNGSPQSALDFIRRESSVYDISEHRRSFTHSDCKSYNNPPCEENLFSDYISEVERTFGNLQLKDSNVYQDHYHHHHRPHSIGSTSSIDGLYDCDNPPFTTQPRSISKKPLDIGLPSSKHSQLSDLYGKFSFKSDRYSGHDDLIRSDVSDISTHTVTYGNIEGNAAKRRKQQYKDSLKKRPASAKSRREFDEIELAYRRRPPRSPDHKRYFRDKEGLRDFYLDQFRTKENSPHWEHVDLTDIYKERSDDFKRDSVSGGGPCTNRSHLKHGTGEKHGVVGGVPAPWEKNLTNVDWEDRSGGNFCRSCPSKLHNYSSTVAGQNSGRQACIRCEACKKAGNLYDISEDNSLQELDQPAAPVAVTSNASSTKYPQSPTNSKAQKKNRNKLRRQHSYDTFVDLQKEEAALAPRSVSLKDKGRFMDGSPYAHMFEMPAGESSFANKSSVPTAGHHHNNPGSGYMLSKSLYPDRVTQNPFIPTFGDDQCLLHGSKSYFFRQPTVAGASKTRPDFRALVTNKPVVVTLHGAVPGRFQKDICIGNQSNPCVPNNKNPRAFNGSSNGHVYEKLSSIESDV
- assay_protocol: NR2B Binding Assay
- setup_conditions: forebrain P2 membranes of male CD rats; 5 nM [3H] NR2B ligand
- Procedure: The activity of the cycloalkylene amide compounds of the present invention, as NR2B antagonists, is determined by their ability to inhibit the binding of NR2B subunit at its receptor sites employing radioactive ligands. The NR^2B antagonist activity of the cycloalkylene amide compounds is evaluated by using the standard assay procedure described in, for example, J. Pharmacol., 331, pp 117-126, 1997. […]
pIC50: −log10 of the molar value.

- compound_string: "O=C(NC[C@H]1CC[C@@H](COc2cccc(F)c2)CC1)c1cn[nH]c1"
  pIC50: 7.80
- compound_string: "O=C(NC[C@H]1CC[C@@H](OCCc2ccccc2)CC1)c1ccc(O)nc1"
  pIC50: 8.15
- compound_string: "O=C(NC[C@]1(O)CC[C@H](Cc2ccccc2)CC1)c1ccc(O)cc1"
  pIC50: 8.14
- compound_string: "O=C(NC[C@]1(O)CC[C@H](COCc2ccccc2)CC1)c1ccc(O)cc1"
  pIC50: 7.94
- compound_string: "O=C(NC[C@H]1CC[C@@H](COc2ccccn2)CC1)c1cn[nH]c1"
  pIC50: 7.57

###

- tested_system: NR2B receptor (Rattus norvegicus, UniProt P35439+Q00960)
- Construct: Membranes were prepared by homogenization of forebrain of male CD rats
- assay_protocol: NR2B Binding Assay
- setup_conditions: forebrain P2 membranes of male CD rats; 5 nM [3H] NR2B ligand
- Experimental: The activity of the cycloalkylene amide compounds of the present invention, as NR2B antagonists, is determined by their ability to inhibit the binding of NR2B subunit at its receptor sites employing radioactive ligands. The NR^2B antagonist activity of the cycloalkylene amide compounds is evaluated by using the standard assay procedure described in, for example, J. Pharmacol., 331, pp 117-126, 1997. […]
Entries are sorted into classes by IC50 as follows: bottom bin (below 9 nM), middle bin (9 nM to below 20 nM), top bin (20 nM or more)

- compound_string: "O=C(NC[C@]1(O)CC[C@H](CCOc2ccccc2F)CC1)c1cn[nH]c1"
  group_label: "top bin"
- compound_string: "O=C(NC[C@]1(O)CC[C@H](COc2ccccc2F)CC1)c1ccc(O)c(F)c1"
  group_label: "middle bin"
- compound_string: "Cc1cccc(OC[C@H]2CC[C@@](O)(CNC(=O)c3ccc(O)cc3)CC2)c1"
  group_label: "middle bin"
- compound_string: "O=C(NC[C@]1(O)CC[C@H](OCc2ccccc2F)CC1)c1ccc(O)cc1"
  group_label: "top bin"
- compound_string: "O=C(NC[C@H]1CC[C@@H](COc2ccc(Cl)cc2)CO1)c1cn[nH]c1"
  group_label: "middle bin"
- compound_string: "O=C(NC[C@@H]1CC[C@H](COc2ccccc2)CO1)c1ccc(O)cc1"
  group_label: "bottom bin"
- compound_string: "O=C(NC[C@H]1CC[C@@H](COc2ccc(F)cc2)CO1)c1ccc(O)cc1"
  group_label: "bottom bin"
- compound_string: "O=C(NC[C@]1(O)CC[C@H](COc2ccc(F)cc2)CC1)c1ccc(O)cc1"
  group_label: "bottom bin"
- compound_string: "O=C(NC[C@]1(O)CC[C@H](COCc2ccccc2)CC1)c1ccc(O)c(F)c1"
  group_label: "middle bin"

###

Reported IC50 values for the following compounds.
- tested_system: Human HERG (Homo sapiens)
- assay_protocol: Human Dofetilide Binding Assay

- compound_string: "O=C(NC[C@H]1CC[C@@H](CCOc2ccc(F)cc2)CO1)c1cn[nH]c1"
  IC50: "> 100 µM"
- compound_string: "O=C(NC[C@]1(O)CC[C@H](COCc2ccccc2)CC1)c1ccc(O)cc1"
  IC50: "> 100 µM"
- compound_string: "O=C(NC[C@H]1CC[C@@H](COc2ccccn2)CC1)c1cn[nH]c1"
  IC50: "> 100 µM"
- compound_string: "O=C(NC[C@@H]1CC[C@H](COc2ccccc2)CO1)c1ccc(O)cc1"
  IC50: "55.2 µM"
- compound_string: "O=C(NC[C@H]1CC[C@@H](COc2ccc(F)cc2)OC1)c1ccc(O)cc1"
  IC50: "54.7 µM"
- compound_string: "O=C(NC[C@]1(O)CC[C@H](COc2cc(F)cc(F)c2)CC1)c1ccc(O)cc1"
  IC50: "62.6 µM"
- compound_string: "O=C(NC[C@@H]1CC[C@H](CCOc2ccc(F)cc2)CO1)c1cn[nH]c1"
  IC50: "99.4 µM"
- compound_string: "O=C(NC[C@H]1CC[C@@H](COc2ccccn2)CC1)c1ccc(O)c(F)c1"
  IC50: "> 100 µM"

###

Below, each entry is listed alongside its reported pIC50.
- tested_system: NR2B receptor (Rattus norvegicus, UniProt P35439+Q00960)
- Construct: Membranes were prepared by homogenization of forebrain of male CD rats
- assay_protocol: NR2B Binding Assay
- setup_conditions: forebrain P2 membranes of male CD rats; 5 nM [3H] NR2B ligand
pIC50: −log10 of the molar value.
assay_endpoint: pIC50

- compound: "Cc1ccc(OC[C@H]2CC[C@@](O)(CNC(=O)c3ccc(O)cc3)CC2)cc1 [Example 19]"
  tested_system: "NR2B receptor (Rattus norvegicus, UniProt P35439+Q00960)"
  assay_endpoint: "pIC50"
  assay_result: 8.11
- compound: "O=C(NC[C@]1(O)CC[C@@H](Oc2ccc(Cl)cc2)CC1)c1ccc(O)c(F)c1 [Example 34]"
  tested_system: "NR2B receptor (Rattus norvegicus, UniProt P35439+Q00960)"
  assay_endpoint: "pIC50"
  assay_result: 7.83
- compound: "O=C(NCC1(O)CCC(COCc2cccc(F)c2)CC1)c1ccc(O)c(F)c1 (centres unmarked) [Example 50]"
  tested_system: "NR2B receptor (Rattus norvegicus, UniProt P35439+Q00960)"
  assay_endpoint: "pIC50"
  assay_result: 7.56
- compound: "O=C(NC[C@]1(O)CC[C@H](CCOc2ccccc2)CC1)c1ccc(O)c(F)c1 [Example 63]"
  tested_system: "NR2B receptor (Rattus norvegicus, UniProt P35439+Q00960)"
  assay_endpoint: "pIC50"
  assay_result: 8.21
- compound: "O=C(NC[C@]1(O)CC[C@H](OCc2ccccc2)CC1)c1ccc(O)cc1 [Example 30]"
  tested_system: "NR2B receptor (Rattus norvegicus, UniProt P35439+Q00960)"
  assay_endpoint: "pIC50"
  assay_result: 7.63
- compound: "Cc1ccccc1OC[C@H]1CC[C@@](O)(CNC(=O)c2ccc(O)cc2)CC1 [Example 17]"
  tested_system: "NR2B receptor (Rattus norvegicus, UniProt P35439+Q00960)"
  assay_endpoint: "pIC50"
  assay_result: 7.63
- compound: "O=C(NC[C@]1(O)CC[C@H](COc2cc(F)cc(F)c2)CC1)c1ccc(O)cc1 [Example 13]"
  tested_system: "NR2B receptor (Rattus norvegicus, UniProt P35439+Q00960)"
  assay_endpoint: "pIC50"
  assay_result: 7.52
- compound: "O=C(NC[C@]1(O)CC[C@H](COCc2ccccc2F)CC1)c1ccc(O)c(F)c1 [Example 69]"
  tested_system: "NR2B receptor (Rattus norvegicus, UniProt P35439+Q00960)"
  assay_endpoint: "pIC50"
  assay_result: 7.88
- compound: "O=C(NC[C@]1(O)CC[C@H](COc2ccccc2F)CC1)c1ccc(O)cc1 [Example 11]"
  tested_system: "NR2B receptor (Rattus norvegicus, UniProt P35439+Q00960)"
  assay_endpoint: "pIC50"
  assay_result: 8.07
- compound: "O=C(NC[C@H]1CC[C@@H](COc2ccc(F)cc2)OC1)c1ccc(O)cc1 [Example 74]"
  tested_system: "NR2B receptor (Rattus norvegicus, UniProt P35439+Q00960)"
  assay_endpoint: "pIC50"
  assay_result: 8.14
- compound: "O=C(NC[C@@H]1CC[C@H](COc2ccc(F)cc2)CO1)c1ccc(O)cc1 [Example 76]"
  tested_system: "NR2B receptor (Rattus norvegicus, UniProt P35439+Q00960)"
  assay_endpoint: "pIC50"
  assay_result: 7.53
- compound: "Cc1ccc(OC[C@H]2CC[C@@](O)(CNC(=O)c3ccc(O)cc3)CC2)nc1 [Example 67]"
  tested_system: "NR2B receptor (Rattus norvegicus, UniProt P35439+Q00960)"
  assay_endpoint: "pIC50"
  assay_result: 7.77
- compound: "O=C(NC[C@H]1CC[C@@H](COc2ccccc2)CO1)c1ccc(O)cc1 [Example 35]"
  tested_system: "NR2B receptor (Rattus norvegicus, UniProt P35439+Q00960)"
  assay_endpoint: "pIC50"
  assay_result: 7.68
- compound: "Nc1n[nH]cc1C(=O)NC[C@H]1CC[C@@H](COc2ccc(Cl)cc2)CO1 [Example 125]"
  tested_system: "NR2B receptor (Rattus norvegicus, UniProt P35439+Q00960)"
  assay_endpoint: "pIC50"
  assay_result: 7.90
- compound: "O=C(NC[C@]1(O)CC[C@H](COCc2ccc(F)cc2)CC1)c1ccc(O)c(F)c1 [Example 64]"
  tested_system: "NR2B receptor (Rattus norvegicus, UniProt P35439+Q00960)"
  assay_endpoint: "pIC50"
  assay_result: 7.58
- compound: "O=C(NC[C@@H]1CC[C@H](CCOc2ccc(F)cc2)CO1)c1cn[nH]c1 [Example 114]"
  tested_system: "NR2B receptor (Rattus norvegicus, UniProt P35439+Q00960)"
  assay_endpoint: "pIC50"
  assay_result: 8.11
- compound: "O=C(NC[C@]1(O)CC[C@H](COc2cccc(Cl)c2)CC1)c1ccc(O)cc1 [Example 15]"
  tested_system: "NR2B receptor (Rattus norvegicus, UniProt P35439+Q00960)"
  assay_endpoint: "pIC50"
  assay_result: 7.68

Recorded values, source patent US20070167452A1.
